target: LasB (Pseudomonas aeruginosa (strain ATCC 15692 / DSM 22644 / CIP 104116 / JCM 14847 / LMG 12228 / 1C / PRS 101 / PAO1), UniProt P14756); test: In vitro LasB activity assay (fluorogenic substrate); details: LasB 0.3 nM, substrate 150 μM, mean ± SD
Sequence (P14756 198-498): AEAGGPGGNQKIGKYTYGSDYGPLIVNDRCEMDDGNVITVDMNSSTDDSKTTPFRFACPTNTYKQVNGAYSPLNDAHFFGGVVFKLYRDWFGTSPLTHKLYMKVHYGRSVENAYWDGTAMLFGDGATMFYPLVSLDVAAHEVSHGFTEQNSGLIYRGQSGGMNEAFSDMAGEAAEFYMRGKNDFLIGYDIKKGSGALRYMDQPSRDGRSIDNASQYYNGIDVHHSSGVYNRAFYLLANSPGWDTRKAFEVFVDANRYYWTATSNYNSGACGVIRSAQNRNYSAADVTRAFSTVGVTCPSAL
Would you mind sorting the entries by IC50 according to these classes? group A = under 5 nM, group B = from 5 nM up to 10 nM, group C = 10 nM and over

QUERY: Using the reported IC50, which band applies to CC(C)CC(C(=O)NO)C(=O)Nc1ccc(Cn2cc(CNS(=O)(=O)c3ccccc3)nn2)cc1 (stereo not drawn) ?
RESULT: group B

QUERY: Using the reported IC50, which band applies to CC(C)CC(C(=O)NO)C(=O)Nc1ccc(Cn2nncc2CNS(=O)(=O)c2ccc(F)cc2)cc1 (stereo not drawn) ?
RESULT: group B

QUERY: Using the reported IC50, which band applies to CC(C)CC(C(=O)NO)C(=O)Nc1ccc(Cn2cc(CNS(=O)(=O)c3ccc(N)cc3)nn2)cc1 (stereo not drawn) ?
RESULT: group B

QUERY: Using the reported IC50, which band applies to CC(C)CC(C(=O)NO)C(=O)Nc1ccc(Cn2cc(CNS(=O)(=O)c3ccc(NC(=O)OC(C)(C)C)cc3)nn2)cc1 (stereo not drawn) ?
RESULT: group A

QUERY: Using the reported IC50, which band applies to CC(C)CC(C(=O)NO)C(=O)Nc1ccc(Cn2cc(CN3C(=O)c4ccccc4S3(=O)=O)nn2)cc1 (stereo not drawn) ?
RESULT: group C

QUERY: Using the reported IC50, which band applies to CC(C)CC(C(=O)NO)C(=O)Nc1ccc(Cn2cc(CNS(=O)(=O)c3cccc(Cl)c3)nn2)cc1 (stereo not drawn) ?
RESULT: group A

QUERY: Using the reported IC50, which band applies to CC(C)CC(C(=O)NO)C(=O)Nc1ccc(Cn2cc(CNS(=O)(=O)c3ccc(-c4ccccc4)cc3)nn2)cc1 (stereo not drawn) ?
RESULT: group C

QUERY: Using the reported IC50, which band applies to COCCOc1ccc(S(=O)(=O)NCc2cn(Cc3ccc(NC(=O)C(CC(C)C)C(=O)NO)cc3)nn2)cc1 (stereo not drawn) ?
RESULT: group C

QUERY: Using the reported IC50, which band applies to CC(C)CC(C(=O)NO)C(=O)Nc1ccc(Cn2cc(CNS(=O)(=O)c3ccc(Cl)cc3)nn2)cc1 (stereo not drawn) ?
RESULT: group A

QUERY: Using the reported IC50, which band applies to CC(C)CC(C(=O)NO)C(=O)Nc1ccc(Cn2cc(CNS(=O)(=O)CC34CCC(CC3=O)C4(C)C)nn2)cc1 (stereo not drawn) ?
RESULT: group B

QUERY: Using the reported IC50, which band applies to CC(C)CC(C(=O)NO)C(=O)Nc1ccc(Cn2cc(CNS(=O)(=O)C3CCCCC3)nn2)cc1 (stereo not drawn) ?
RESULT: group A

QUERY: Using the reported IC50, which band applies to CC(C)CC(C(=O)NO)C(=O)Nc1ccc(Cn2cc(CNS(=O)(=O)c3ccc(OC(C)C)cc3)nn2)cc1 (stereo not drawn) ?
RESULT: group B

QUERY: Using the reported IC50, which band applies to CC(C)CC(C(=O)NO)C(=O)Nc1ccc(Cn2cc(CNS(=O)(=O)Cc3ccc(Cl)cc3)nn2)cc1 (stereo not drawn) ?
RESULT: group B

QUERY: Using the reported IC50, which band applies to COC(=O)c1ccc(S(=O)(=O)NCc2cn(Cc3ccc(NC(=O)C(CC(C)C)C(=O)NO)cc3)nn2)cc1 (stereo not drawn) ?
RESULT: group C
